Task for the reader: assign each of the following variants its reported self-cleavage.
B1: HDV Ribozyme (parent)
chain: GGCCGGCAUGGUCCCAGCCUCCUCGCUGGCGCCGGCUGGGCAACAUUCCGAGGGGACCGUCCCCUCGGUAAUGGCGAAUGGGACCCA

variants of: B1; experiment: self-cleavage, relative activity (ratio to wild type); higher = more cleavage; co-transcriptional
One number for each entry.

[[record]]
alteration = "U12C A87U"
quantity_name = "self-cleavage"
recorded_measurement = 0.396

[[record]]
alteration = "G6A C30G"
quantity_name = "self-cleavage"
recorded_measurement = 0.0678

[[record]]
alteration = "U23C C66A"
quantity_name = "self-cleavage"
recorded_measurement = 0.982

[[record]]
alteration = "C30A C58A"
quantity_name = "self-cleavage"
recorded_measurement = 0.623

[[record]]
alteration = "U20G U23A"
quantity_name = "self-cleavage"
recorded_measurement = 0

[[record]]
alteration = "A51G A78U"
quantity_name = "self-cleavage"
recorded_measurement = 0.156

[[record]]
alteration = "C3U G39C"
quantity_name = "self-cleavage"
recorded_measurement = 0.0804

[[record]]
alteration = "G1A A70G"
quantity_name = "self-cleavage"
recorded_measurement = 0.214

[[record]]
alteration = "G10A C18A"
quantity_name = "self-cleavage"
recorded_measurement = 0.0567

[[record]]
alteration = "U23A G81C"
quantity_name = "self-cleavage"
recorded_measurement = 0.306


I would be grateful if you could provide self-cleavage for each of the following entries.
1. A45G G74A
2. G53U C86G
3. C18U G68U
4. C22A A51C
5. A83G C84U

Reply:
0.517
1.12
0.635
0.341
0.798
